test system: SNB-75 CNS; test: NCI-60 one-dose screen, 48 h; conditions: 10 µM unless noted
About 83,000 compounds went through this panel and 20% of them were active in at least one assay; those are over-represented in the sample as a whole. The source made the active and inactive calls. The calls were made as follows: active = growth percent below 10; inactive = the rest.
Outcome codes: 1 (active), -1 (inactive)

compound	subject.of.test	group
CC(=O)O[C@H]1CC[C@@]2(C)[C@@H](CC[C@@H]3[C@@H]2CC(=O)[C@@]2(C)[C@H]3C[C@@H](C3CCCC3=O)[C@@H]2C(C)=O)C1 (stereo partly drawn)	SNB-75 CNS	-1
Fc1ccc(NCc2nnc(-c3ccc(Cl)cc3)o2)cc1	SNB-75 CNS	-1
COc1ccc(/C=C(\C#N)c2cc3ccccc3n2C(C)=O)cc1	SNB-75 CNS	-1
CC(C)=CCC/C(C)=C/CC/C(C)=C/CSC[C@H](NC(=O)CCCCCN1CCN(C)CC1)C(=O)NC1CCCCCC1	SNB-75 CNS	-1
CCCCN1CCCCn2c1nc1c2c(=O)n(C)c(=O)n1C	SNB-75 CNS	-1
Cc1ccsc1-c1ccc2c(c1)COC2(CCCN(C)C)c1ccc(F)cc1 (stereo not drawn)	SNB-75 CNS	-1
Cc1nn(-c2ccc(Cl)cc2)c(=O)n1CCn1cnc2ccccc21	SNB-75 CNS	-1
O=[N+]([O-])c1ccc(/C=N\Nc2ccccc2)cc1	SNB-75 CNS	-1
Fc1ccc(Nc2nnc(-c3ccc(Cl)cc3)o2)cc1	SNB-75 CNS	-1
Cn1cc(-c2csc(-c3cn(CCNC(=O)OC(C)(C)C)c4ccc(F)cc34)n2)c2cccnc21	SNB-75 CNS	-1
COc1cc2[nH]c(C(=O)c3cc(OC)c(OC)c(OC)c3)c(N)c2cc1C#CC1CC1	SNB-75 CNS	1
C=C(C)[C@@H]1CC[C@]2(C=NCCCNCCCCNCCCN)CC[C@]3(C)[C@H](CC[C@@H]4[C@@]5(C)CCCNC(C)(C)[C@@H]5CC[C@]43C)[C@@H]12	SNB-75 CNS	-1
Nc1c(Cl)cc(N=Nc2ccccc2)cc1Cl	SNB-75 CNS	-1
CC1(C)[C@@H](O)CC[C@]2(C)[C@H]3CC[C@@H]4[C@H]5[C@H](C(=O)/C=C/c6ccc(C(F)(F)F)cc6)CC[C@]5(CO)CC[C@@]4(C)[C@]3(C)CC[C@@H]12	SNB-75 CNS	-1
O=C(NCN1C(=O)c2cccc3cccc(c23)C1=O)N1CCC(Cc2ccccc2)CC1	SNB-75 CNS	-1
c1ccc2c(-c3nc(-c4c[nH]c5ncccc45)cs3)c[nH]c2c1	SNB-75 CNS	-1
COc1ccc(C(=O)c2cc(OC)c(OC)c(OC)c2)cc1/C=C/C(=O)c1cc(OC)c(OC)c(OC)c1	SNB-75 CNS	-1
Nc1c2c(nc3ccc(Br)cc13)CC(c1ccccc1)CC2=O (stereo not drawn)	SNB-75 CNS	1
CCCCC[C@H]1CC=C2C(=O)C(Cl)=C[C@@H]2CC=CCCCC(=O)O[C@@H](CCCCC)CC=C2C(=O)C(Cl)=C[C@@H]2CC=CCCCC(=O)O[C@@H](CCCCC)CC=C2C(=O)C(Cl)=C[C@@H]2CC=CCCCC(=O)O1	SNB-75 CNS	-1
COc1cc2c(cc1-c1c(C)noc1C)ncc1nc(C3CC3)n([C@H](C)COC(F)F)c12	SNB-75 CNS	-1
O=C1/C(=C\c2ccc(Br)o2)SC(=S)N1CCc1ccc(O)cc1	SNB-75 CNS	-1
COC(=O)CCCCCn1c2ccccc2c2c3c(c4c5ccccc5[nH]c4c21)C(=O)N(O)C3=O	SNB-75 CNS	-1
CC1(C)C(=O)/C(=C\c2ccco2)C[C@]2(C)[C@H]3CC[C@@H]4[C@@H](C(=O)/C=C/c5ccco5)CC[C@@]4(C)[C@]3(C)CC[C@@H]12	SNB-75 CNS	-1
Cc1ccc(S(=O)(=O)Nc2ccc(-c3cc(-c4cccc(F)c4)c(C#N)c(N)n3)cc2)cc1	SNB-75 CNS	1
CCC(c1ccc(OC)cc1)C(CC)c1ccc(O)c(CN2CCCCC2)c1 (stereo not drawn)	SNB-75 CNS	-1
CC(C)=CCC[C@](C)(O)[C@H]1CC[C@]2(C)[C@@H]1CC[C@@H]1[C@@]3(C)C/C(=C/c4cccc([N+](=O)[O-])c4)C(=O)C(C)(C)[C@@H]3CC[C@]12C	SNB-75 CNS	1
CC(c1ccccc1)N1C(=O)C(C2SC(=S)N(C(C)c3ccccc3)C2=O)SC1=S (stereo not drawn)	SNB-75 CNS	-1
CC(C)C[C@@H](NC(=O)[C@@H](Cc1ccccc1)NC(=O)c1cnccn1)B1O[C@H]2[C@H](O)[C@@H](C(=O)NCCCC[C@@H]3NC(=O)[C@@H](Cc4ccccc4)NC(=O)[C@H](CC(=O)O)NC(=O)CNC(=O)[C@H](CCCN=C(N)N)NC3=O)O[C@@H](CN)[C@H]2O1	SNB-75 CNS	1

----------
tested on: NCI/ADR-RES ovarian; experiment: NCI-60 one-dose screen, 48 h; conditions: 10 µM unless noted
This is part of a sample that, as a whole, favours compounds with a hit. Of some 83,000 tested, about 20% had one in any assay. Calls of active or inactive are those of the source. Rule for the calls: active = growth percent below 10; inactive = the rest.
Outcome codes: 1 (active), -1 (inactive)

> print(dat)
                                    molecule  group
 1  C=C(C)[C@@H]1CC[C@]2(CN)CC[C@]3(C)[C@H](CC[C@@H]4[C@@](C)(CCCN)[C@H](C(=C)C)CC[C@]43C)[C@@H]12     -1
 2       COc1ccc(NC(=O)c2ccoc2COc2ccccc2)cc1     -1
 3  COc1cccc(-c2nn(-c3ccccc3)cc2-c2ccnc(NCCCN)c2)c1     -1
 4  Cc1oc(-c2ccccc2Cl)cc1C(=O)Nc1ccc(S(N)(=O)=O)cc1     -1
 5     C/C(=N\Nc1cc(C)c2cc(C)ccc2n1)c1ccccn1      1
 6  O=C1c2ccccc2NC(c2cn(-c3ccccc3)nc2-c2cccs2)N1Cc1ccccc1 (stereo not drawn)     -1
 7                      C[Si](C)(C)Cc1ccccc1     -1
 8  COC(=O)C(N)CSC(c1ccccc1)(c1ccccc1)c1ccccc1 (stereo not drawn)     -1
 9  Cc1cc(N2CCOCC2)nc(N(CCCNc2ccnc3cc(Cl)ccc23)Cc2ccco2)n1     -1
10  Cc1ccc(Nc2c(C(N)=O)cnc3ccc(S(=O)(=O)Nc4cc(C)on4)cc23)cc1     -1
11  CC1(C)NCCC[C@]2(C)[C@H]3CC[C@@H]4[C@H]5[C@H](C(=O)/C=C/c6ccccn6)CC[C@]5(CO)CC[C@@]4(C)[C@]3(C)CC[C@@H]12     -1
12  CCN1CCN(C(=O)[C@]23CCC(C)(C)C[C@@H]2C2=CC[C@@H]4[C@@]5(C)C/C(=C/c6ccncc6)C(=O)C(C)(C)[C@@H]5CC[C@@]4(C)[C@]2(C)CC3)CC1      1
13  CCCCC[C@H]1C/C=C2/C(=O)C(Cl)=C[C@@H]2C/C=C\CCCC(=O)O[C@@H](CCCCC)C/C=C2/C(=O)C(Cl)=C[C@@H]2C/C=C\CCCC(=O)O1     -1

----------
system: SK-MEL-5 melanoma; experiment: NCI-60 one-dose screen, 48 h (100 = growth as untreated, 0 = no growth, -100 = all killed); conditions: 10 µM unless noted
Compounds without any hit were thinned out: in the full panel of roughly 83,000, 20% have a hit.

compound	growth, %
O=C1c2ccccc2NC(c2cn(-c3ccccc3)nc2-c2cccnc2)N1Cc1ccccc1 (stereo unspecified)	94.2
COc1ccc(-c2c(-c3nc4ccc(N5CCOCC5)cc4[nH]3)[nH]c(C)c2C(C)=O)cc1	22.2
C[C@H]1[C@H]2C3=CC[C@@H]4[C@@]5(C)C/C(=C/c6ccco6)C(=O)C(C)(C)[C@@H]5CC[C@@]4(C)[C@]3(C)CC[C@@]2(C(=O)N2CCOCC2)CC[C@@H]1C	72.1
CCN1CCN(c2nc(C)cc(N(CCCNc3ccnc4cc(Cl)ccc34)Cc3ccco3)n2)CC1	-37.8
Cc1cc(N2CCCC2)nc(N(CCNc2ccnc3cc(Cl)ccc23)Cc2ccco2)n1	-93
NC(Cc1ccc(O)cc1)C(=O)N/N=C/c1ccccc1O (stereo unspecified)	103
CC(CNc1nc(Nc2ccc(Cl)c(Cl)c2)nc(C(Cl)(Cl)Cl)n1)N(C)C (stereo unspecified)	-56.9
COc1ccc(-c2nc3ncccn3c2-c2nc3ccc(Br)cc3[nH]2)cc1	74.9
O=C(CI)Nc1ccc(O)c2ccccc12	-47.7
COc1cc(-c2nc(-c3ccccc3)c(-c3ccccc3)[nH]2)cc(OC)c1O	-8.78
CC(=O)O[C@H]1CC[C@@]2(C)[C@@H](CC[C@@H]3[C@@H]2CC(=O)[C@@]2(C)[C@H]3C[C@@H](C3CCCC3=O)[C@@H]2C(C)=O)C1 (stereo partly specified)	108
C/C(Cc1ccc(Cl)cc1)=C(/c1ccc(Cl)cc1)c1ccc(OCCN2CCCC2)cc1	93.1
COc1ccc(C2(Cl)c3ccccc3N(c3ccccc3)c3ccccc32)cc1	-87.3
Cc1nn(-c2ccc(Br)cc2)c2nc3[nH]c(=O)[nH]c(=O)c3nc12	100
N#CCCCCCn1c2ccccc2c2c3c(c4c5ccccc5n(CCCCCC#N)c4c21)C(=O)N(O)C3=O	74.2
CN(C)c1ccc(N)c2ccccc12	-99.4
